# experimental_details: qHTS assay to identify small molecule agonists of the NFkB signaling pathway - cell viability counter screen (AID 1159515); further: nearly all actives have a fitted effect of over 55% in size
# measurement_conditions: NFkB-bla ME-180 viability, CellTiter-Glo luminescence, 5 h; series mostly up to 61 µM
Inconclusive results are not listed. Active and inactive are the calls of the source. The call rests on the fitted dose curve.
Write down one outcome, taken from active, inactive

Use the examples below as a reference point.
O=C(Nc1cccc([N+](=O)[O-])c1)c1cc2ccccc2cc1O; inactive
O=C(OCC(COC(=O)c1ccccc1)(COC(=O)c1ccccc1)COC(=O)c1ccccc1)c1ccccc1; inactive
CC(C)=CCOc1ccc(/C=C/C(=O)c2ccc(OCC=C(C)C)cc2OCC(=O)O)cc1; inactive
OCCN(CCO)c1nc(N2CCCCC2)c2nc(N(CCO)CCO)nc(N3CCCCC3)c2n1; inactive
O=[N+]([O-])c1cc([N+](=O)[O-])c2ccc(S(=O)(=O)O)cc2c1O; inactive
CNc1ccc(O)cc1; active
Nc1nc2ccccc2n1Cc1ccc(F)cc1; inactive
NNc1nc(-c2ccc(N)cc2)cs1; inactive
CCN(CC)CCCC(C)Nc1c2ccc(Cl)cc2nc2ccc(OC)cc12 (stereo unspecified); inactive
CCN1/C(=C/C=C/c2sc3ccccc3[n+]2CC)Sc2ccccc21; inactive

Kindly review the next molecule as well.
Prompt: Check the results log: what was the call for `O=C(Nc1cccc(C(F)(F)F)c1)c1cc(Br)cc(Br)c1O` ?
Completion: active

====

# target_of_assay: Cytochrome P450 2C9 (Homo sapiens)
# experimental_details: Cytochrome P450 Family 2 Subfamily C Member 9 (CYP2C9) small molecule antagonists: luciferase reporter qHTS assay (AID 1671198); further: nearly all actives have a fitted effect of over 50% in size
# measurement_conditions: P450-Glo CYP2C9 enzyme assay, luciferin luminescence; series mostly up to 53 µM
Results filed as inconclusive are left out. The source made the active and inactive calls. Calls come from the whole dose curve; as a rule, active = well fitted inhibition curve with a large enough effect in the repeat runs; inconclusive = weak or mixed curves; inactive = no such curve, though single readings can be large or run the other way.
Write down one outcome, taken from active, inactive

Use the examples below as a reference point.
COC(=O)c1cc(Cl)ccc1OC; inactive
CCCCCCCCOc1ccccc1C(=O)Nc1ccc(C(=O)OCC[N+](C)(CC)CC)cc1; active
C[C@@H]1C[C@H]2[C@@H]3CCC4=CC(=O)C=C[C@]4(C)[C@@]3(Cl)[C@@H](O)C[C@]2(C)[C@@]1(OC(=O)c1ccco1)C(=O)CCl; active
Cc1cccc(N(C)C(=S)Oc2ccc3c(c2)C2CCC3C2)c1 (stereo not drawn); active
CC[C@H]1O[C@]2(CC[C@@H]1C)C[C@@H]1C[C@@H](C/C=C(\C)C[C@@H](C)/C=C/C=C3\CO[C@@H]4[C@H](O)C(C)=C[C@@H](C(=O)O1)[C@]34O)O2; active
Cc1c(C)c2c(c(C)c1OC(=O)CCC(=O)O)CC[C@@](C)(CCC[C@H](C)CCC[C@H](C)CCCC(C)C)O2; inactive
CNc1ccc(O)cc1; active

Prompt: Check the results log: what was the call for `CCOC(=O)c1nc(C(Cl)(Cl)Cl)n(-c2ccc(Cl)cc2Cl)n1` ?
Completion: active

====

# target_of_assay: Androgen receptor (Homo sapiens) (UniProt P10275)
# Sequence (P10275 whole entry, looked up): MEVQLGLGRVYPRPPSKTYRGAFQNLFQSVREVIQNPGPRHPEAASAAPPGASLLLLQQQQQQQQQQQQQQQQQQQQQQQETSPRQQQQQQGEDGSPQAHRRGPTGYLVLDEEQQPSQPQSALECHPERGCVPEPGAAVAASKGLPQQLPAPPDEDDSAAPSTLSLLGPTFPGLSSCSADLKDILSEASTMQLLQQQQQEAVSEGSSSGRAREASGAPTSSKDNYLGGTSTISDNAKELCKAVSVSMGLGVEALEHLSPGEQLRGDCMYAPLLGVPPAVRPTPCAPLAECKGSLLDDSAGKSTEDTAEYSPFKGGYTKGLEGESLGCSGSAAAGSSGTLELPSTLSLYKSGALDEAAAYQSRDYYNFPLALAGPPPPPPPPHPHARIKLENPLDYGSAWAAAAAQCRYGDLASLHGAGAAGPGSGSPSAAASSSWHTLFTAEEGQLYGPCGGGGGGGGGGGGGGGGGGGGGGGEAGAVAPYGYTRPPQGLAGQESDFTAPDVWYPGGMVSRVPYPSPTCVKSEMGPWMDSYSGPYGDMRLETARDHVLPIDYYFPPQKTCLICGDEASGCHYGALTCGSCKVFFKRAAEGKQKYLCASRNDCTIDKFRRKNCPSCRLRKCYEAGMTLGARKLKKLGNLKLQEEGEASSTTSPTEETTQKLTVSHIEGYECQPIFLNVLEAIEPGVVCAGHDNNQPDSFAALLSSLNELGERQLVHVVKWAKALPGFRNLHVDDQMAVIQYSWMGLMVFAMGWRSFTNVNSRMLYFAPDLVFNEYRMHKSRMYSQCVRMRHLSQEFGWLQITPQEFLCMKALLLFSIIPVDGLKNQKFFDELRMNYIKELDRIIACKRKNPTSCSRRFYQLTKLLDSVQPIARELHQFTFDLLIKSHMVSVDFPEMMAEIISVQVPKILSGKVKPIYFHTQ
# experimental_details: qHTS assay to identify small molecule antagonists of the androgen receptor (AR) signaling pathway (AID 743035)
# measurement_conditions: HEK293 AR-UAS-bla, R1881-stimulated, beta-lactamase FRET, 16 h; series mostly up to 58.5 µM
# Excerpt: National Center for Advancing Translational Sciences [NCATS] NIH Chemical Genomics Center [NCGC] U.S. Environmental Protection Agency [EPA] National Institutes of Environmental Health Sciences [NIEHS] National Toxicology Program [NTP] U.S. Food and Drug Administration [FDA] Androgen receptor (AR), a nuclear hormone receptor, plays a critical role in AR-dependent prostate cancer and other androgen related diseases. […]
Inconclusive results are not listed. The source made the active and inactive calls. Calls follow the shape of the dose curve; as a rule, active = well fitted inhibition curve with a large enough effect in the signal ratio in the repeat runs (not every such curve was filed as active); inconclusive = weak or mixed curves, or effect the other way; inactive = no such curve, though single readings can be large or run the other way; the % refers to the signal ratio.
Write down one outcome, taken from class 1 (active), class 0 (inactive)

CCCCCCCCCCCCCCCC(=O)OC[C@H](O)[C@H]1OC(=O)C(O)=C1O; class 0
Cc1cc(O)c2ccccc2c1O; class 0
CCCCCCCCCCCCCC[P+](CCCC)(CCCC)CCCC (tested in a mixture with another compound); class 1
CCc1cc(Cc2cc(CC)cc(C(C)(C)C)c2O)c(O)c(C(C)(C)C)c1; class 1
Clc1ccc2nsnc2c1NC1=NCCN1; class 0
C=C(C)C(=O)OCC[N+](C)(C)C; class 0

Prompt: Check the results log: what was the call for `COc1cccc2c1C(=O)c1c(O)c3c(c(O)c1C2=O)C[C@@](O)(C(=O)CO)C[C@@H]3O[C@H]1C[C@H](N)[C@H](O[C@@H]2CCCCO2)[C@H](C)O1` ?
Completion: class 1

Prompt: Check the results log: what was the call for `CCCCN(CCCC)c1ccc(C(=O)c2ccccc2C(=O)O)c(O)c1` ?
Completion: class 1

Prompt: Check the results log: what was the call for `COc1cc(-c2nc(NC(=O)c3cc4cc(C)cc(C)c4n3CC(=O)O)sc2CCC2CCCCC2)c(OC)cc1Cl` ?
Completion: class 1

Prompt: Check the results log: what was the call for `N=C1C=CC(=C(c2ccc(N)cc2)c2ccc(N)cc2)C=C1` ?
Completion: class 1
